Every entry's value here was drawn from patent US11040028B2.

- Tested on: BHK-21 cells
- assay-summary: Anti-fibrosis activity test: inhibition of BHK-21 cell proliferation (CCK-8)
- Type: cell-based
- run-parameters: Mesocricetus auratus, BHK-21, 48 h, CCK-8, 48 hours after administration
# IC50 per entry

Reference set (5 entries):
O=C1c2c([nH]c3cc(N4CCNCC4)ccc3c2=O)-c2cccn21 [Compound 319a]; 0.05 to 5 mM
O=C1c2c(nc3c(F)cccc3c2OCc2ccc(F)cc2)-c2cccn21 [Compound 452b]; 0.05 to 5 mM
O=C1c2c(n(Cc3ccc(Cl)c(Cl)c3)c3ccccc3c2=O)-c2cccn21 [Compound 613a]; < 0.05 mM
O=C1c2c(n(Cc3ccc(F)c(F)c3)c3ccccc3c2=O)-c2cccn21 [Compound 601a]; 0.05 to 5 mM
C=CCOc1c2c(nc3cc(N4CCNCC4)c(F)cc13)-c1cccn1C2=O [Compound 349b]; 0.05 to 5 mM

IN: Form field: reported IC50 of CCOc1c2c(nc3ccc(F)cc13)-c1cccn1C2=O [Compound 104b]
OUT: 0.05 to 5 mM

IN: Form field: reported IC50 of "CC(C)CCOc1c2c(nc3ccccc13)-c1cccn1C2=O"
OUT: 0.05 to 5 mM

IN: Form field: reported IC50 of O=C1c2c(n(CCO)c3ccc(F)cc3c2=O)-c2cccn21 [Compound 114a]
OUT: < 0.05 mM

IN: Form field: reported IC50 of N#Cc1cccc2nc3c(c(OCc4ccc(F)cc4)c12)C(=O)n1cccc1-3 [Compound 462b]
OUT: 0.05 to 5 mM

IN: Form field: reported IC50 of N#Cc1cccc2c(OCc3ccccc3F)c3c(nc12)-c1cccn1C3=O [Compound 456b]
OUT: 0.05 to 5 mM

IN: Form field: reported IC50 of Cc1ccccc1Cn1c2c(c(=O)c3ccccc31)C(=O)n1cccc1-2 [Compound 574a]
OUT: 0.05 to 5 mM

###

- Test system: BHK-21 cells
- assay-summary: Anti-fibrosis activity test: inhibition of BHK-21 cell proliferation (CCK-8)
- Type: cell-based
- run-parameters: Mesocricetus auratus, BHK-21, 48 h, CCK-8, 48 hours after administration
# IC50 per entry

Reference set (8 entries):
Cc1ccc(Cn2c3c(c(=O)c4ccccc42)C(=O)n2cccc2-3)cc1 [Compound 604a]; 0.05 to 5 mM
O=C(Cn1c2c(c(=O)c3ccccc31)C(=O)n1cccc1-2)c1ccc(Cl)cc1 [Compound 90a]; 0.05 to 5 mM
O=C(O)COc1c2c(nc3ccc(F)cc13)-c1cccn1C2=O [Compound 153b]; 0.05 to 5 mM
O=C1c2c(nc3ccc(F)cc3c2Oc2ccc(Cl)cc2)-c2cccn21 [Compound 133b]; 0.05 to 5 mM
O=C1c2c(nc3cc(N4CCNCC4)ccc3c2OCc2ccc(F)cc2F)-c2cccn21 [Compound 622b]; 0.05 to 5 mM
O=C1c2c(n(Cc3ccc(Cl)cc3)c3ccccc3c2=O)-c2cccn21 [Compound 589a]; < 0.05 mM
O=C1c2c(n(Cc3ccc(Br)cc3)c3cc(N4CCNCC4)c(F)cc3c2=O)-c2cccn21 [Compound 633a]; < 0.05 mM
O=C1c2c(n(Cc3ccc(Cl)cc3)c3c(C(F)(F)F)c(N4CCNCC4)ccc3c2=O)-c2cccn21 [Compound 483a]; < 0.05 mM

Please examine the following record next.
IN: Form field: reported IC50 of O=C1c2c(nc3ccc(C(F)(F)F)cc3c2Oc2ccc(F)cc2)-c2cccn21 [Compound 259b]
OUT: 0.05 to 5 mM
